Every entry's value here was drawn from patent US20150164117A1.

# Procedure text: Size of fragrance-loaded silk microparticles from silk/fragrance emulsions
# Assay type: physicochemical
# Recorded conditions: silk concentration ~5%; fragrance:silk ~1:2; n = 3
Provide the recorded Microparticle size for the entries that follow.

Exercise: State the recorded Microparticle size for this entry: CCCC(C)C(=O)OCC (stereo not shown) [Applinate]
Key: 8.11 ± 1.96 μm

Exercise: State the recorded Microparticle size for this entry: C/C=C/C(=O)C1C(C)C=CCC1(C)C (stereo not shown) [Delta-Damascone]
Key: 7.84 ± 1.49 μm

Exercise: State the recorded Microparticle size for this entry: C=CC(C)CCCC(C)(C)O (stereo not shown) [Dihydromyrcenol]
Key: 7.71 ± 1.82 μm

Exercise: State the recorded Microparticle size for this entry: C=C(C)C1CC=C(C)CC1 (stereo not shown) [Limonene]
Key: 12.40 ± 4.76 μm
